pIC50: −log10 of the molar value.
Hi! I'm sharing some pIC50 results obtained with FGFR1 (Homo sapiens, UniProt P11362).
Sequence (P11362 22-822, species assumed): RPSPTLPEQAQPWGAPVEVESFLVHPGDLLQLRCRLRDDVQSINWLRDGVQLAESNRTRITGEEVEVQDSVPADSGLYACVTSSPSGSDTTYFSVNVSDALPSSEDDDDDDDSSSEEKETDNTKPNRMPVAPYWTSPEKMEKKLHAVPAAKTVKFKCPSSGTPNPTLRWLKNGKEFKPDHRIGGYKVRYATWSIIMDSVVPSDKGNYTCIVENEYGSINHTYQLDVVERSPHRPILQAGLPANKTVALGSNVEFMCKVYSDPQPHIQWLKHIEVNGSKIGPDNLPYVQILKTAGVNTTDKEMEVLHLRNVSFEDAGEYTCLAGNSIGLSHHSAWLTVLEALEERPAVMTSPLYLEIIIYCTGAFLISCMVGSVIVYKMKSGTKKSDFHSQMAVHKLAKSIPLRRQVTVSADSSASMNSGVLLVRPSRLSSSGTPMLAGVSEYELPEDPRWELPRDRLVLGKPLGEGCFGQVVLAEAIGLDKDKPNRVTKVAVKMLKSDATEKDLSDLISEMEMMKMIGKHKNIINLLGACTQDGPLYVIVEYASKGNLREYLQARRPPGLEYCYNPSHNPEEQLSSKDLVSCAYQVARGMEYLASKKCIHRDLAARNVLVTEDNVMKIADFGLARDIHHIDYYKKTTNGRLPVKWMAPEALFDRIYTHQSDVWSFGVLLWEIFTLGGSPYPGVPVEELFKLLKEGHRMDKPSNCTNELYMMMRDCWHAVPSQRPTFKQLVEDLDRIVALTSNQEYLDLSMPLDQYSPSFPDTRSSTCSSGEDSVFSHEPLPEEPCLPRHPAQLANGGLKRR
parameter: pIC50

Recorded pIC50, per entry:
compound: CNS(=O)(=O)c1ccc2c(c1)/C(=C1\CCc3c1[nH]c(C)c3C(=O)NCC(O)CNC1CC1)C(=O)N2 (centres unmarked)
parameter: pIC50
measured-value: 7.70
--
compound: CNS(=O)(=O)c1ccc2c(c1)/C(=C1\CCc3c1[nH]c(C)c3C(=O)O)C(=O)N2
parameter: pIC50
measured-value: 7.66
--
compound: COc1ccc2c(c1)NC(=O)/C2=C1/CCc2c1[nH]c(C)c2C(=O)N1CCC[C@H]1CN1CCCC1
parameter: pIC50
measured-value: 6.68
--
compound: CCOC(=O)c1c(C)[nH]c2c1CC/C2=C1/C(=O)Nc2ccc(S(=O)(=O)CC)cc21
parameter: pIC50
measured-value: 6.28

I: CNS(=O)(=O)c1ccc2c(c1)/C(=C1\CCc3c1[nH]c(C)c3S(C)(=O)=O)C(=O)N2
II: CCOC(=O)c1c(C)[nH]c2c1CC/C2=C1/C(=O)Nc2ccccc21
III: CNS(=O)(=O)c1ccc2c(c1)/C(=C1\CC(CC(=O)O)c3cc(OC)ccc31)C(=O)N2 (centres unmarked)
[in] Rank ascending by pIC50. Labels, ranked as asked.
[out] II, III, I
(II: 7.10, III: 7.40, I: 7.82)

1: CCOC(=O)c1c(C)[nH]c2c1CC/C2=C1/C(=O)Nc2ccc(S(=O)(=O)Cc3c(Cl)cccc3Cl)cc21
2: CNS(=O)(=O)c1ccc2c(c1)/C(=C1\CCc3c1[nH]c(C)c3C(=O)N1CCCC1CN1CCCC1)C(=O)N2 (stereo in doubt)
3: CCOC(=O)c1c(C)[nH]c2c1CC/C2=C1/C(=O)Nc2ccc(S(N)(=O)=O)cc21
[in] Reorder: pIC50, max to min. Labels, ranked as asked.
[out] 2, 3, 1
(2: 7.82, 3: 7.00, 1: 5.60)

* * *

Hi! I'm sharing some pIC50 results obtained with FGFR1 (Homo sapiens).
pIC50: −log10 of the molar value.

Recorded pIC50, per entry:
compound: CNS(=O)(=O)c1ccc2c(c1)/C(=C1\CCc3c1[nH]c(C)c3C(=O)NCC(O)CN1CCCC1)C(=O)N2 (stereo not shown) [Example 10]
target: FGFR1 (Homo sapiens)
pIC50: > 7.74
--
compound: CCOC(=O)c1c(C)[nH]c2c1CC/C2=C1/C(=O)Nc2ccc(S(=O)(=O)NC(C)C)cc21 [Example 8]
target: FGFR1 (Homo sapiens)
pIC50: < 4.70
--
compound: CNS(=O)(=O)c1ccc2c(c1)C(=C1CCCC1)C(=O)N2 [Example 15]
target: FGFR1 (Homo sapiens)
pIC50: < 4.70

Shift focus to the following entry.
[in] Short answer please: pIC50, FGFR1 (Homo sapiens), entry CCOC(=O)c1c(C)[nH]c2c1CC/C2=C1/C(=O)Nc2ccc(S(=O)(=O)N(C)C)cc21 [Example 7]
[out] < 4.70
